Entry source: patent US10479780B2

biological target: human Src enzyme (Homo sapiens, UniProt P12931); construct: purchased Carna Biosciences, Inc. 08-173; experiment: Src enzyme inhibitory activity (time-resolved fluorometry, biotinylated peptide phosphorylation); format: biochemical; details: read-out: SRC_IC50
Sequence (P12931 whole entry): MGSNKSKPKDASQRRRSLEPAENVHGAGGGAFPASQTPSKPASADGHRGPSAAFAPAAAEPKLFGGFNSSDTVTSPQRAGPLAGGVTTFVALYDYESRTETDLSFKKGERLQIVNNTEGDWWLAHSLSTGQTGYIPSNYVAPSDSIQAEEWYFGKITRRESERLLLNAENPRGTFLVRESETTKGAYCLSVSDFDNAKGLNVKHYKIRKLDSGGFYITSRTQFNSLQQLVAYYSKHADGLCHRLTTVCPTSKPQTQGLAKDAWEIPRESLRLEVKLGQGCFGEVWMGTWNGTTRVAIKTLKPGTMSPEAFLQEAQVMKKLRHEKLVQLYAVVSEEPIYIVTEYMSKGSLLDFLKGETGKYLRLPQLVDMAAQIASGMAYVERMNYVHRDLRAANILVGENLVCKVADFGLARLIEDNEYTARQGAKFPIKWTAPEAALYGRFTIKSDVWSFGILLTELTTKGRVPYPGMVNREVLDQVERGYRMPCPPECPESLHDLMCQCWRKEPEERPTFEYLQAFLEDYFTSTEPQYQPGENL
pIC50: −log10 of the molar value.
Decide using pIC50: a value greater than or equal to 8 is t, a smaller one is f.

Answered cases to consult:
line_notation=Cc1cc(-n2ncc(C(=O)c3cc4cc(OC5CCN(C6CCCC6)CC5)c(-c5ccccc5C(F)(F)F)cc4[nH]3)c2N)ccc1Oc1ccccc1F class_assignment=f
line_notation=Cc1cc(Oc2ccccc2F)ccc1-n1ncc(C(=O)c2cc3cc(OC4CCN(C(C)C)CC4)c(N4CCN(S(C)(=O)=O)CC4)cc3[nH]2)c1N class_assignment=t
line_notation=Cc1cc2cc(C(=O)c3cnn(-c4cnc(Oc5cc(F)ccc5F)cc4C)c3N)[nH]c2cc1NS(C)(=O)=O class_assignment=f
line_notation=Cc1cc(Oc2c(F)cccc2F)ncc1-n1ncc(C(=O)c2cc3cc(OC(F)F)c(N4CCN(S(C)(=O)=O)CC4)cc3[nH]2)c1N class_assignment=f
line_notation=Cc1cc(Oc2ccccc2Cl)ncc1-n1ncc(C(=O)c2cc3cc(NS(C)(=O)=O)c(F)cc3[nH]2)c1N class_assignment=f

Query compound follows.
Qu. Confirm if pIC50 reported for the compound Cc1cc(Oc2ccccc2F)ccc1-n1ncc(C(=O)c2cc3cc(OCC(F)F)c(N4C(=O)[C@@H]5C[C@H](NS(=O)(=O)Cc6ccccc6)CN5C4=O)cc3[nH]2)c1N is 8 or above.
Ans. f
